target: ScAbp1; experiment: SPOT peptide array binding signal intensity (averaged, normalized) (arbitrary units (background-subtracted, floor 0; scale differs between SH3 domains)); higher = stronger binding of the SH3 domain to the peptide
Let's look at some binders and their measured SPOT peptide array binding signal intensity.

{"Binder": "NFLRLLIGLPSQNEL", "Reported value": "≤ 0"}
{"Binder": "VPPVPLPFGIPPFPM", "Reported value": "≤ 0"}

As a next step, examine the binder that follows.
Prompt: For the binder "SSSSSPPPLPTRRDH" , give its reported SPOT peptide array binding signal intensity.
Completion: ≤ 0
